target: AtlE (Staphylococcus aureus, UniProt A0A0H3JT72)
Sequence (A0A0H3JT72 entry or part of it): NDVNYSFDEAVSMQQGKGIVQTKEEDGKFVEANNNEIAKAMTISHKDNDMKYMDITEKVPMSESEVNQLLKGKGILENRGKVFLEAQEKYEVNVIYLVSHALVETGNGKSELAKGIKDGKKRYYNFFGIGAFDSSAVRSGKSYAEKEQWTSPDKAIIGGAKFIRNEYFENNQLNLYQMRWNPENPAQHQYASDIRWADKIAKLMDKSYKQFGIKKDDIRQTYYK
pKd: −log10 of the molar value.
endpoint_label: pKd

molecule="O=C(Nc1cccc(Cl)c1)NC1CCN(c2cccc(C(=O)N3CCc4ccccc4C3)c2)CC1 [Compound 10]" quantitative_result=5.72
